molecular target: human 11-β-hydroxysteroid dehydrogenase type-1 enzyme (11-β-HSD1) (Homo sapiens, UniProt P28845)
Sequence (P28845 whole entry): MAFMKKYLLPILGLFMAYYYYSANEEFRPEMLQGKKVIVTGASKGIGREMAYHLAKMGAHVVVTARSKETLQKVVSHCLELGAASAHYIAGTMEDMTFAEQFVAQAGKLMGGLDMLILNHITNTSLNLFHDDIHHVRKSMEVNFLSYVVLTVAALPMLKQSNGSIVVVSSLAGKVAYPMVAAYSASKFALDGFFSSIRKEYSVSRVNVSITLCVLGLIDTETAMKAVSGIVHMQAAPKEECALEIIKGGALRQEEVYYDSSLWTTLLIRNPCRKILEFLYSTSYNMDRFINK
Structures can show the parent of a compound that is named as a salt.
We begin with a simple list: items and their reported pKi.
Convention used: pKi is expressed as -log10 of the molar concentration.

Worked examples follow.
Cc1c(Cl)cccc1NC1=NC(=O)C(CC(=O)N(C)c2ccccc2)S1 (stereo not shown) [Example 109]; 6.15
O=C1N=C(NC2(c3ccc(Cl)cc3)CCC2)SC1CCNc1ccccc1 (stereo not shown) [Example 335, hydrobromide]; 6.27
O=C(NCCC1SC(NC2CCCCCC2)=NC1=O)Nc1ccccc1Cl (stereo not shown) [Example 261]; 6.25

Q. Specify pKi for CCC(C)CNC1=NC(=O)C(CC(=O)N2CCCc3ccccc32)S1 (stereo not shown) [Example 125] and stop.
A. 6.42
